Reported values of growth inhibition for individual entries
test: NCI Yeast Anticancer Drug Screen. Data for the mec2-1 strain (AID 157); settings: S. cerevisiae mec2-1 strain, at 50.0 µM, hits give high values
About 79,000 compounds went through this panel and 15% of them were active in at least one assay; those are over-represented in the sample as a whole.
endpointName: growth inhibition (%)

compound=CCOC(=O)c1cnc(SC)nc1Nc1cccc(C)c1 numericvalue=-10.4
compound="O=S1(=O)CCCCC1C(O)(c1ccccc1)c1ccccc1 (configuration not stated)" numericvalue=94.2
compound="CC1(C)COC(C23C4C5C2C2C3C4C52I)=N1 (configuration not stated)" numericvalue=12.4
compound=CCS(=O)(=O)c1ccc(NC(=O)OC2CCCCCC2)cc1 numericvalue=-2.25
compound="CC(=O)OC1C(COC(N)=O)OC(n2c(-c3ccc(C)cc3)cc(-c3ccccc3)c(C#N)c2=O)C(OC(C)=O)C1OC(C)=O (configuration not stated)" numericvalue=7.25
compound=CCCCC(=O)CCCC numericvalue=-14
compound="Cc1cccc(NC(=O)/C(=N\\NC(C)(C)C)C2NC(=S)NC2=O)c1C (configuration not stated)" numericvalue=-29.8
compound="CCC(C)NC(=O)C1C2CCC(C2)C1C(=O)NC(C)CC (configuration not stated)" numericvalue=-2.9
compound="CCOC(=O)C(C#N)CCC(C)=O (configuration not stated)" numericvalue=-11.1
compound="CC1(C)C[C@@H]2C1CCC1(C)CC2(O)CC[C@H]1O (some centres not stated)" numericvalue=-35
compound=CNC(=O)Oc1ccc2c(c1)[C@]1(C)CCN(C)[C@@H]1N2C numericvalue=-29.8
compound="O=C1NC(CN2CCC(O)CC2)C(=O)NC1CN1CCC(O)CC1 (configuration not stated)" numericvalue=7.7
compound=CCOC(=O)NNC(=O)c1ccccc1N(C)C numericvalue=-18.6
compound="COc1ccc(CC(N)C(=O)N2CCCCC2)cc1 (configuration not stated)" numericvalue=0.8
compound=CN(C)c1ccc(-c2ccncc2)cc1 numericvalue=15.2
compound=CC(=O)Nc1ccc(NC(=O)Nc2cc(Cl)ccc2C)cc1 numericvalue=5.05
compound=CCOP(=O)(Cc1ccc(CP(=O)(OCC)OCC)n1C)OCC numericvalue=-7.5
